molecular target: CatB (Homo sapiens); experiment: CatB single point enzyme activity assay (residual activity); settings: read-out: RA
measurement type: remaining activity at 100 µM

compound	subject of test	measurement type	reading
O=C(CBr)c1ccccc1	CatB (Homo sapiens)	remaining activity at 100 µM	27%
O=C(CCl)Nc1ccccc1	CatB (Homo sapiens)	remaining activity at 100 µM	88%
C=CC(=O)N(C)C	CatB (Homo sapiens)	remaining activity at 100 µM	75%
O=S(=O)(/C=C/c1ccccc1)c1ccccc1	CatB (Homo sapiens)	remaining activity at 100 µM	77%
CCOC(=O)/C=C/c1ccccc1	CatB (Homo sapiens)	remaining activity at 100 µM	79%
CCOC(=O)C#Cc1ccccc1	CatB (Homo sapiens)	remaining activity at 100 µM	70%
C=CC(=O)Nc1ccccc1	CatB (Homo sapiens)	remaining activity at 100 µM	88%
C=CS(=O)(=O)c1ccccc1	CatB (Homo sapiens)	remaining activity at 100 µM	87%
CC(Br)C(=O)Nc1cc(C(F)(F)F)cc(C(F)(F)F)c1 (stereo not drawn)	CatB (Homo sapiens)	remaining activity at 100 µM	91%

----------
molecular target: MurA (Escherichia coli); assay: biochemical; details: read-out: RA
Sequence (P0A749 whole entry): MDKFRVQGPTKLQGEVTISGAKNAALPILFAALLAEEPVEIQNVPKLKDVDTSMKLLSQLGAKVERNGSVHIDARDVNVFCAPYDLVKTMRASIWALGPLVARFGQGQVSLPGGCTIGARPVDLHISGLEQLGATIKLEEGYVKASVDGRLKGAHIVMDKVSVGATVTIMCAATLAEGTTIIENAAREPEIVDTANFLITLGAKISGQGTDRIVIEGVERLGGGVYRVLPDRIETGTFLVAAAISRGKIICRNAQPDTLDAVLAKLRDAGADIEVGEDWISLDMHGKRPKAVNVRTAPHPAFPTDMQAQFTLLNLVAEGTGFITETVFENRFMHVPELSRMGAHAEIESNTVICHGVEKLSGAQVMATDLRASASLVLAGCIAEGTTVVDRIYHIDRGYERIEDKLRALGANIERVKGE
Quick list: remaining activity at 100 µM per entry.

compound	remaining activity at 100 µM / %
COC(=O)/C=C/C(=O)OC [Compound 25, COC(=O)/C=C/C(=O)OC]	50
COc1ccccc1C(=O)CBr [Compound 46, COc1ccccc1C(=O)CBr]	3
O=C1C=CC(=O)N1C1CCCCC1 [Compound 40, O=C1C=CC(=O)N1C1CCCCC1]	1
CC(Br)C(=O)Nc1cc(C(F)(F)F)cc(C(F)(F)F)c1 (stereo not drawn) [Compound 50, CC(Br)C(=O)Nc1cc(C(F)(F)F)cc(C(F)(F)F)c1]	35
CCOC(=O)C#Cc1ccccc1 [Compound 36, CCOC(=O)C#Cc1ccccc1]	75
Cc1ccccc1NC(=O)CCl [Compound 47, Cc1ccccc1NC(=O)CCl]	83
O=C1C=CC(=O)N1Cc1ccccc1 [Compound 39, O=C1C=CC(=O)N1Cc1ccccc1]	2
O=S(=O)(/C=C/c1ccccc1)c1ccccc1 [Compound 35, O=S(=O)(/C=C/c1ccccc1)c1ccccc1]	82
C=CS(=O)(=O)c1ccccc1 [Compound 34, C=CS(=O)(=O)c1ccccc1]	12
COc1cc(NC(=O)CCl)cc(OC)c1 [Compound 51, COc1cc(NC(=O)CCl)cc(OC)c1]	61
C=CC(=O)Nc1ccccc1 [Compound 30, C=CC(=O)Nc1ccccc1]	78
O=C(CBr)c1ccccc1 [Compound 45, O=C(CBr)c1ccccc1]	2
O=C(CCl)Nc1ccccc1 [Compound 48, O=C(CCl)Nc1ccccc1]	110
O=C1C=CC(=O)N1c1ccccc1 [Compound 41, O=C1C=CC(=O)N1c1ccccc1]	0.8
O=C(CBr)c1ccc(-c2ccccc2)cc1 [Compound 44, O=C(CBr)c1ccc(-c2ccccc2)cc1]	0.1

----------
Molecular target: Recombinant human microsomal MAO-A (Homo sapiens)
Construct: purchased Sigma Aldrich; host or cells: baculovirus infected insect cells (BTI-TN-5B1-4)
Sequence (P21397 1-527): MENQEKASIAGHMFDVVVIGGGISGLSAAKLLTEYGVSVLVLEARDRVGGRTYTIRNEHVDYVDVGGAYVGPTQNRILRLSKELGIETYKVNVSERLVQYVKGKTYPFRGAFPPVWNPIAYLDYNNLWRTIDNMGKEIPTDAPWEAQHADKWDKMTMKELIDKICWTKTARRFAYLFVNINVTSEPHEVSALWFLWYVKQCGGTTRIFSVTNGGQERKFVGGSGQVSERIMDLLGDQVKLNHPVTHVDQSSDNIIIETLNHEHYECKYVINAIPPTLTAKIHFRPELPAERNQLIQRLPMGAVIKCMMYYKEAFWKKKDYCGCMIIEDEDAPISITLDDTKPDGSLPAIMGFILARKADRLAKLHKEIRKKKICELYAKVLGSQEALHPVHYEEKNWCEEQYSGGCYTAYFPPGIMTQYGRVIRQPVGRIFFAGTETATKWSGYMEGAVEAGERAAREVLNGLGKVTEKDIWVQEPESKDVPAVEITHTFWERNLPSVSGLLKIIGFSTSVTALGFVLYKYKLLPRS
Assay: MAO-A activity assay (fluorimetric, Amplex Red, p-tyramine)
Format: biochemical
Conditions: MAO-A residual activity; active if lower than 60%
Quick list: RA per entry.

smiles structure	RA
Cc1ccccc1NC(=O)CCl	78%
CC#CC(=O)OCC	84%
CC(C)(C)OC(=O)N1CC=CC1=O	47%
C/C=C/C(=O)OC	68%
O=C1C=CCO1	99%
